Task for the reader: assign each of the following binders its reported pIC50.
- Tgt: T1, HIV-1YU2 gp120 (HIV-1 strain YU-2, UniProt P35961 32-498, limits assumed)
- T1 construct: domain: gp120
- Test Details: SPR competition; gp120 binding to CD4
Where no end group is shown, it is not given here. [ ]: non-standard residue; d: D form.
// returns pIC50 (minus log10 of molar concentration), number only

Query: Name the recorded pIC50 for INNI[Azp‑triazole‑ferrocene]WS-NH2 (Rink amide resin; also called INNIPWS) [UM21] .
Response: 7.07

Query: Name the recorded pIC50 for RNNI[Azp‑triazole‑ferrocene]WS (also called RNNIPWS) [UM22] .
Response: 6.91

Query: Name the recorded pIC50 for RINNI[Azp‑triazole‑ferrocene]W (also called RINNIPW) [UM12] .
Response: 6.91

Query: Name the recorded pIC50 for FNNI[Azp‑triazole‑ferrocene]WS-NH2 (Rink amide resin; also called FNNIPWS) [UM28] .
Response: 6.98

Query: Name the recorded pIC50 for NNI[Azp‑triazole‑ferrocene]WS-NH2 (Rink amide resin; also called NNIPWS) [UM31] .
Response: 5.30

Query: Name the recorded pIC50 for KNNI[Azp‑triazole‑ferrocene]WS (also called KNNIPWS) [UM27] .
Response: 6.89
